Below is a list of entries, each paired with its recorded Activity value.
Test system: Rattus norvegicus
Experiment: Toxicity in triton WR-1339-induced Rattus norvegicus albino Wistar (rat) hyperlipidemic model assessed as increase of serum LDL level at 150 mg/kg, po qd after 24 hr
Assay type: organism-based
Parameters: dose 150 mg/kg, route oral
Details: in vivo
Write the number in % without appending the unit.

>>> quantitative_result("CC(C(=O)NCc1ccccc1)n1c(=O)c2ccccc2c2ccccc2c1=O (stereo unspecified)")
4.5
>>> quantitative_result("CCNC(=O)C(C)N1C(=O)c2cccc3cccc(c23)C1=O (stereo unspecified)")
4.5
>>> quantitative_result("CCCNC(=O)C(C)N1C(=O)c2ccccc2C1=O (stereo unspecified)")
35.5
>>> quantitative_result("CC(C(=O)Nc1ccccc1)N1C(=O)c2cccc3cccc(c23)C1=O (stereo unspecified)")
4.5
>>> quantitative_result("CC(C)NC(=O)C(C)N1C(=O)c2ccccc2C1=O (stereo unspecified)")
35.5

[Q] State, in one line, measured Activity of CC(C(=O)N1CCCC1)N1C(=O)c2ccccc2C1=O (stereo unspecified)
[A] 35.5

[Q] Please give the documented Activity of CC(C(=O)NCc1ccccc1)N1C(=O)c2ccccc2C1=O (stereo unspecified)
[A] 35.5

[Q] For the compound CC(C)OC(=O)C(C)(C)Oc1ccc(C(=O)c2ccc(Cl)cc2)cc1 [FENOFIBRATE] , report Activity.
[A] 13

[Q] Supply reported Activity belonging to this compound: CC(C(=O)NCCc1ccccc1)N1C(=O)c2ccccc2C1=O (stereo unspecified)
[A] 35.5

[Q] Identify measured Activity corresponding to CC(C(=O)NCc1ccccc1)N1C(=O)c2cccc3cccc(c23)C1=O (stereo unspecified)
[A] 4.5

[Q] Using the record for CCNC(=O)C(C)N1C(=O)c2ccccc2C1=O (stereo unspecified) , state its measured Activity.
[A] 35.5
